Here we list compounds with their recorded pKi when tested on Acetylcholinesterase (Torpedo californica, UniProt P04058).
Sequence (P04058 whole entry): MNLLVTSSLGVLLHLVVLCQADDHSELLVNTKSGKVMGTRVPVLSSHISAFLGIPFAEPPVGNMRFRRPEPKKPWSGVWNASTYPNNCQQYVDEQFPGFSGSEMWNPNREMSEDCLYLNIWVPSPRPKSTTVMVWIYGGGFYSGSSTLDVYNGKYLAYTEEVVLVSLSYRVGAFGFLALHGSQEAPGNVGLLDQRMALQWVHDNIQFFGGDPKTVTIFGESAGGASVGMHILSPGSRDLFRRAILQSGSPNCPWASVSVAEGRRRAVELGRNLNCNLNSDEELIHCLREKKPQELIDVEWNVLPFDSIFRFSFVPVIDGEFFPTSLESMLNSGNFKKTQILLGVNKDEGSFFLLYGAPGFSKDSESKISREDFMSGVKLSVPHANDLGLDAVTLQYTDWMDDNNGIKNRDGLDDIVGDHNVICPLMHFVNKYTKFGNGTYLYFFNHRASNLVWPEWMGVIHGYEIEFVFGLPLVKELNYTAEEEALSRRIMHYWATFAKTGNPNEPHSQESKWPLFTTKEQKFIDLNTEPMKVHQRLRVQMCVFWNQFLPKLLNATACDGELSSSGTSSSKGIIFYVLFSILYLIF
Keep in mind that pKi stands for -log10 of concentration in molar terms.

[[record]]
smilesnotation = "CN(C)c1ccc(CC(=O)NCCCCCCCCCCCNC23CC4CC(CC(C4)C2)C3)cc1"
datavalue = 5.68

[[record]]
smilesnotation = "CN(C)c1ccc(CC(=O)NCCCCCCCCCCNC23CC4CC(CC(C4)C2)C3)cc1"
datavalue = 5.60

[[record]]
smilesnotation = "CN(C)c1ccc(CC(=O)NCCCCCCCCNC23CC4CC(CC(C4)C2)C3)cc1"
datavalue = 5.26

[[record]]
smilesnotation = "CN(C)c1ccc(CC(=O)NCCCCCCCNC23CC4CC(CC(C4)C2)C3)cc1"
datavalue = 5.15

[[record]]
smilesnotation = "CN(C)c1ccc(CC(=O)NCCCCCCCCCCCCNC23CC4CC(CC(C4)C2)C3)cc1"
datavalue = 5.74


INPUT: Can you look up the measured pKi of CN(C)c1ccc(CC(=O)NCCCCCCCCCNC23CC4CC(CC(C4)C2)C3)cc1 for me?
OUTPUT: 5.47
